Test system: CT26 cells
testProtocol: Cell cycle distribution by flow cytometry (propidium iodide), CT26
Assay type: cell-based, mouse
conditionInfo: CT26, 10 μg/mL, 24 h; control 3.6 ± 0.6
Overview of reported SubG1 (%) across a group of compounds:
Value expressed in %; do not type the unit.

Worked set:
Reported SubG1 (%) for CT26 cells, given CCCCCC[C@@H]1NC2(C(=O)NC(=O)NC2=O)[C@]2(c3ccccc3)[C@@H](c3ccccc3)[C@]12c1ccccc1 [Compound 4g] ?
1.9

Reported SubG1 (%) for CT26 cells, given CC(C)C[C@@H]1NC2(C(=O)NC(=O)NC2=O)[C@]2(c3ccccc3)[C@@H](c3ccccc3)[C@]12c1ccccc1 [Compound 4f] ?
24.9

Reported SubG1 (%) for CT26 cells, given CC[C@@H]1NC2(C(=O)NC(=O)NC2=O)[C@]2(c3ccccc3)[C@@H](c3ccccc3)[C@]12c1ccccc1 [Compound 4c] ?
2.0

---
Reported SubG1 (%) for CT26 cells, given CCCC[C@@H]1NC2(C(=O)NC(=O)NC2=O)[C@]2(c3ccccc3)[C@@H](c3ccccc3)[C@]12c1ccccc1 [Compound 4e] ?
19.3

###

Test system: African green monkey kidney epithelial (Vero) cell line
testProtocol: MTS antiproliferative (cytotoxicity) assay, Vero (reference)
Format: cell-based
conditionInfo: MTS, 24 h; read-out: IC50, Vero, 24 h
observable: pIC50
# pIC50 is unitless: minus log10 of the molar concentration; print number only

Reported pIC50 for African green monkey kidney epithelial (Vero) cell line, given N.N.[Cl][Pt][Cl] [Cisplatin, reference compound] ?
4.85

###

Overview of reported IC50 across a group of compounds:
Test system: mouse colon carcinoma (CT26) cell line
testProtocol: MTS antiproliferative (cytotoxicity) assay, CT26
Type: cell-based
conditionInfo: Mus musculus, CT26, 24 h, read-out: IC50, CT26, 24 h
Value expressed in µM; do not type the unit.

Recorded IC50 for C[C@@H]1NC2(C(=O)NC(=O)NC2=O)[C@]2(c3ccccc3)[C@@H](c3ccccc3)[C@]12c1ccccc1 [Compound 4b] , please?
30

Recorded IC50 for CSCC[C@@H]1NC2(C(=O)NC(=O)NC2=O)[C@]2(c3ccccc3)[C@@H](c3ccccc3)[C@]12c1ccccc1 [Compound 4h] , please?
22

Recorded IC50 for CC[C@@H]1NC2(C(=O)NC(=O)NC2=O)[C@]2(c3ccccc3)[C@@H](c3ccccc3)[C@]12c1ccccc1 [Compound 4c] , please?
27

Recorded IC50 for CC(C)C[C@@H]1NC2(C(=O)NC(=O)NC2=O)[C@]2(c3ccccc3)[C@@H](c3ccccc3)[C@]12c1ccccc1 [Compound 4f] , please?
17

Recorded IC50 for CCC[C@@H]1NC2(C(=O)NC(=O)NC2=O)[C@]2(c3ccccc3)[C@@H](c3ccccc3)[C@]12c1ccccc1 [Compound 4d] , please?
17

Now look at this one.
Recorded IC50 for O=C1NC(=O)C2(N[C@@H](c3ccccc3)[C@@]3(c4ccccc4)[C@H](c4ccccc4)[C@@]23c2ccccc2)C(=O)N1 [Compound 4i] , please?
16

###

System: human erythroleukemia (K562) cell line
testProtocol: MTS antiproliferative (cytotoxicity) assay, K562
Assay type: cell-based
conditionInfo: Homo sapiens, K562, 24 h, read-out: IC50, K562, 24 h
observable: pIC50
# pIC50 is unitless: minus log10 of the molar concentration; print number only

Worked set:
Recorded pIC50 for CCCCCC[C@@H]1NC2(C(=O)NC(=O)NC2=O)[C@]2(c3ccccc3)[C@@H](c3ccccc3)[C@]12c1ccccc1 [Compound 4g] , please?
4.72

Recorded pIC50 for CSCC[C@@H]1NC2(C(=O)NC(=O)NC2=O)[C@]2(c3ccccc3)[C@@H](c3ccccc3)[C@]12c1ccccc1 [Compound 4h] , please?
4.70

Recorded pIC50 for CCC[C@@H]1NC2(C(=O)NC(=O)NC2=O)[C@]2(c3ccccc3)[C@@H](c3ccccc3)[C@]12c1ccccc1 [Compound 4d] , please?
4.68

Recorded pIC50 for CCCC[C@@H]1NC2(C(=O)NC(=O)NC2=O)[C@]2(c3ccccc3)[C@@H](c3ccccc3)[C@]12c1ccccc1 [Compound 4e] , please?
4.77

Now look at this one.
Recorded pIC50 for O=C1NC(=O)C2(NC[C@@]3(c4ccccc4)[C@H](c4ccccc4)[C@@]23c2ccccc2)C(=O)N1 [Compound 4a] , please?
4.33
